Species: Homo sapiens
Assay Info: Potency relative to flurbiprofen in inhibiting collagen-induced platelet aggregation in human platelet-rich plasma (PRP)
Format: functional
Measure: Relative potency

COc1ccc(-c2csnn2)cc1	0.03
COc1ccc(-c2snnc2-c2ccc(SC)cc2)cc1	3.1

Exam item: Fill in Relative potency for record `c1ccc(-c2nnsc2-c2ccc3c(c2)OCO3)cc1`
Marked response: 0.03

Exam item: Answer with reported Relative potency of `COc1ccc(-c2snnc2-c2ccccc2)cc1`
Marked response: 31.3

Exam item: Supply reported Relative potency belonging to this molecule: `c1ccc(-c2csnn2)cc1`
Marked response: 0.03

Exam item: State its Relative potency for this molecule: `c1ccc(-c2cnns2)cc1`
Marked response: 0.03

###

Species: Homo sapiens
Assay Info: Potency relative to flurbiprofen in inhibiting collagen-induced platelet aggregation in human platelet-rich plasma (PRP)
Format: functional
Measure: Relative potency
Returns: the value as a bare number; no unit string appended.

Worked cases, answers included:
COc1ccc(-c2snnc2-c2ccco2)cc1	3.1
COc1ccc(-c2nnsc2-c2ccccc2)cc1	10
Oc1ccc(-c2nnsc2-c2ccc(O)cc2)cc1	0.03
CCNc1ccc(-c2nnsc2-c2ccc(NCC)cc2)cc1	0.03

Please find the next compound below.
Exam item: Look up Relative potency of `c1csc(-c2nnsc2-c2cccs2)c1` and report it.
Marked response: 0.03

Reference for the values: ChEMBL document CHEMBL1122973
